Origin of values: PubChem BioAssay (NCI)

# System: HCT-15 colon
# test.name: NCI-60 one-dose screen, 48 h
# condition.label: 10 µM unless noted
# Experimental: Growth inhibition of the HCT-15 human tumor cell line is measured as a screen for anti-cancer activity. Cells are grown in 96 well plates and exposed to the test compound for 48 hours. Compounds are tested at a single concentration, which is 10^-5 M for most compounds. The reported endpoint is percent growth (GI% or GIPRCNT), where numbers from 0 - 100% represent growth inhibition, and numbers from -100% - 0 represent cell death. For example, a value of 40 represents 60% growth inhibition. […]
This is part of a sample that, as a whole, favours compounds with a hit. Of some 83,000 tested, about 20% had one in any assay. Calls of active or inactive are those of the source. The calls were made as follows: active = growth percent below 10; inactive = the rest.
Response enum: 1 = active, 0 = inactive

Worked cases, answers included:
{"compound": "Fc1ccc2nc(-c3cnn4cccnc34)sc2c1", "target.of.assay": "HCT-15 colon", "class.label": 0}
{"compound": "CCOC(=O)c1cnc2c(-c3ccc(Cl)c(Cl)c3)cnn2c1", "target.of.assay": "HCT-15 colon", "class.label": 0}
{"compound": "O=S(=O)(NCCCNc1nccc(-c2[nH]c(-c3ccccc3)nc2-c2ccc(F)c(O)c2)n1)c1cccc2ccccc12", "target.of.assay": "HCT-15 colon", "class.label": 0}

How was `CC(=O)Nc1nc(C)c(-c2csc(Nc3ccccc3)n2)s1` classified in this test?
0

How was `CC(C)NC(=O)c1cc(-c2ccc(NC(=O)Nc3ccc(F)c(C(F)(F)F)c3)cc2)nc2cccnc12` classified in this test?
0

How was `O=[N+]([O-])c1ccc(NC(=S)NNC(=S)Nc2ccc(Br)cc2)cc1` classified in this test?
0

How was `O=C1Nc2ccccc2/C1=C/c1ccc(OCC(=O)c2ccccc2)cc1` classified in this test?
0

How was `N#Cc1nc(-c2ccccc2)oc1N1CCC(C2(C(F)(F)F)N=N2)CC1` classified in this test?
0

How was `CN1CCN(Cc2ccc(NC(=O)c3cncc(C#Cc4cnc(N)nc4)c3)cc2C(F)(F)F)CC1` classified in this test?
0

How was `CC1=C(C)C(=O)C(Nc2cccc(C(=O)OC(C)(C)C)c2)=C(Cl)C1=O` classified in this test?
0

How was `CCOC(=O)c1c(NC(=O)c2ccc(C(F)(F)F)cc2)sc2c(CN3CCN(C)CC3)c(O)ccc12` classified in this test?
1

How was CCCc1cc2cc(-n3nc(CC)c4c3CC(C)(C)CC4=O)cc(NC3CCC(O)CC3)c2c(=O)[nH]1 (configuration not stated) classified in this test?
0

How was `Cc1ccc(S(=O)(=O)NCCCNc2nccc(-c3[nH]c(-c4ccccc4)nc3-c3ccc(F)c(O)c3)n2)cc1` classified in this test?
0

How was `O=S(=O)(Oc1ccc(-c2cn3ccoc3n2)cc1)c1cccc(C(F)(F)F)c1` classified in this test?
0

How was `Clc1cccc(/C=N/Nc2nc(N/N=C/c3cccc(Cl)c3)nc(N3CCOCC3)n2)c1` classified in this test?
1

How was `O=C(CSc1nnc(-c2ccc(Cl)cc2)n1-c1ccccc1)Nc1cccc(F)c1` classified in this test?
0

How was `CCOC(=O)c1c(NCC(=O)Nc2cccc([N+](=O)[O-])c2)sc(C(C)=O)c1C` classified in this test?
1
